What self-cleavage was measured for each of the following?
B1: CPEB3 Ribozyme (parent)
chain: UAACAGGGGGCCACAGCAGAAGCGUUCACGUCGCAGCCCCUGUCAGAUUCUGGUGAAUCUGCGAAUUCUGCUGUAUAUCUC

- Variants of: B1
- TEST: self-cleavage, relative activity (ratio to wild type); higher = more cleavage; in vitro, sequencing
Would you mind answering with just the numeric figure?

Record summary for UAACAGGGGGCCACAGCAGAAGCGUUCACGUCGCAGCCCCUGUCAGAUUCUGGUGUAUCUGCGAAUUCUGCUGUAUAUCAC [A56U U80A] : reported self-cleavage = 1

Record summary for UAACAGGGGGCCACAGCAGAAGCGUUCACGUCGCGGCCCCUGUCAGAUUCUGGUGAAUCUGCGAAUUCUGCUGUAAAUCUC [A35G U76A] : reported self-cleavage = 1.33

Record summary for UAACUGGGGGCCACGGCAGAAGCGUUCACGUCGCAGCCCCUGUCAGAUUCUGGUGAAUCUGCGAAUUCUGCUGUAUAUCUC [A5U A15G] : reported self-cleavage = 0.93

Record summary for UAACAGGGGGCCACAGCAGAAGCGUUCACGUCGCGGCCCCUGUCAGAUUCUGGUGUAUCUGCGAAUUCUGCUGUAUAUCUC [A35G A56U] : reported self-cleavage = 1.24

Record summary for UAACAGGGGGCCACAGCAGAAGCGUUUACGUCGCGGCCCCUGUCAGAUUCUGGUGAAUCUGCGAAUUCUGCUGUAUAUCUC [C27U A35G] : reported self-cleavage = 0.41

Record summary for UAACAGGGGGCCACAGCAUAAGCGUUCACGUCGCAGCCCCCGUCAGAUUCUGGUGAAUCUGCGAAUUCUGCUGUAUAUCUC [G19U U41C] : reported self-cleavage = 0.22

Record summary for UAACAGGGGGCCACAGCAGAAGCGUUCACGUCGCAGCCCCUGUCAGAUACUGGAGAAUCUGCGAAUUCUGCUGUAUAUCUC [U49A U54A] : reported self-cleavage = 0.81

Record summary for UAACAGGGGGCCACAGCAGAAGCGUUCACGUCGCAGCCCCUGUCAGAUACUGGUGAAUCUGCGAGUUCUGCUGUAUAUCUC [U49A A65G] : reported self-cleavage = 0.29

Record summary for UGACAGGGGGCCACAGCAGAAGCGUUCACGUCGCAGCCCCUGUCAGAUUCUGGUGAAUCUGCGAAUUCUGCUGUAUACCUC [A2G U78C] : reported self-cleavage = 0.58

Record summary for UAACAGGGGGCCACAGCAGAAGCGUUCACGUCGCAGCCCCUGACAGAUUAUGGUGAAUCUGCGAAUUCUGCUGUAUAUCUC [U43A C50A] : reported self-cleavage = 1.07

Record summary for UAACAGGGGGCCACAGCAGAAGCGUUCACGUCGUAGCCCCUGUCAGAUUCUGGUGAAUCUGCGAAUUCUGCAGUAUAUCUC [C34U U72A] : reported self-cleavage = 0.26

Record summary for UAACAGGGGGCCACAGCAGAAGCGUUCGCGCCGCAGCCCCUGUCAGAUUCUGGUGAAUCUGCGAAUUCUGCUGUAUAUCUC [A28G U31C] : reported self-cleavage = 0.48

Record summary for UAACAGGGGGCCACAGCAGAAGCGUUCAAGCCGCAGCCCCUGUCAGAUUCUGGUGAAUCUGCGAAUUCUGCUGUAUAUCUC [C29A U31C] : reported self-cleavage = 0.3

Record summary for UAACAGGGGGCCACAGCUGAAGCGUUCACAUCGCAGCCCCUGUCAGAUUCUGGUGAAUCUGCGAAUUCUGCUGUAUAUCUC [A18U G30A] : reported self-cleavage = 0.15

Record summary for UAACAGGGCGCCACAGCUGAAGCGUUCACGUCGCAGCCCCUGUCAGAUUCUGGUGAAUCUGCGAAUUCUGCUGUAUAUCUC [G9C A18U] : reported self-cleavage = 0.08

Record summary for UAACAGGGGGCCACACCAGAAGCGUUCACGUCGCAGCCCCUGUCAGAUUUUGGUGAAUCUGCGAAUUCUGCUGUAUAUCUC [G16C C50U] : reported self-cleavage = 0.18

Record summary for UAACAGGGGGCCUCAGCAGAAGCGUUCACGUCGCAGCCCCUGUCAGAUUCUGGUGAAUCUGCGAAUUUUGCUGUAUAUCUC [A13U C68U] : reported self-cleavage = 1.21

Record summary for UAACAGGGGGCCAUAGCAGAAGCGUUCACGUCGCAGCCCCUGUCAGAUUCUGGUGAAUCUGCAAAUUCUGCUGUAUAUCUC [C14U G63A] : reported self-cleavage = 1.26

Record summary for UAACAGGGGGACACAGCAGAAGCGUUCACGUCGCAGCCCCUGUCAGAUUCUGGUGUAUCUGCGAAUUCUGCUGUAUAUCUC [C11A A56U] : reported self-cleavage = 0.12

Record summary for UAACAGGGGGCCACAGCAGAAGCGUUCUCGUCGCAGCCCCUGUCAGAUUCUGGUGAAUCUGCGAGUUCUGCUGUAUAUCUC [A28U A65G] : reported self-cleavage = 0.35

Record summary for UAACAGGGGGCCACCGCAGAAGCGUUCACGUCGCAGCCCCUGUCAGAUUCUGGUGAAUCCGCGAAUUCUGCUGUAUAUCUC [A15C U60C] : reported self-cleavage = 0.28

Record summary for UAACAGGGGGCCACAGCAGAAACGUUCGCGUCGCAGCCCCUGUCAGAUUCUGGUGAAUCUGCGAAUUCUGCUGUAUAUCUC [G22A A28G] : reported self-cleavage = 0.4

Record summary for UAACAGGGGGCCACAGCUGAAGCGUUCACGUCGCAGCCCCUGUCAGAUUCUGGUGAAUCUGCGAAUUCUGCUGUUUAUCUC [A18U A75U] : reported self-cleavage = 0.5

Record summary for UAACAGGGGGCCACAGCACAAGCGUUCACGUCGCAGCCCCUGUCAGAAUCUGGUGAAUCUGCGAAUUCUGCUGUAUAUCUC [G19C U48A] : reported self-cleavage = 0.18

Record summary for UAAUAGGGGGCCACAGCAGAAGCGUUCACGUCGCAGCCCCUGUCAGAUUCUGGUGAAUCUGCGAAUUCUGCUGUAUAUCCC [C4U U80C] : reported self-cleavage = 1.19

Record summary for UAACAGGGGGCCACAGCAGAAGCGUACACGUCGCAGCCCCUGUCAGAUUCUGGUGAAUCUGCGAAUUCUGCUGUAUAGCUC [U26A U78G] : reported self-cleavage = 0.5

Record summary for UAACAGGGGGCCACAGCAGAAGCGUUCACGUCGCAGCCCCUGUCAGACUCUGGUGAAUCUGCAAAUUCUGCUGUAUAUCUC [U48C G63A] : reported self-cleavage = 0.64

Record summary for UAACAGGGGGCCACAGCAGAAGCGUUGACGUUGCAGCCCCUGUCAGAUUCUGGUGAAUCUGCGAAUUCUGCUGUAUAUCUC [C27G C32U] : reported self-cleavage = 0.17

Record summary for UAACAGGGGGCCACAGCAGAAGCGUUCACGUCGCAGCCCCUGUCAGAUUCUGGUGAAUCUGCGAAUUCUGCUGUUUAACUC [A75U U78A] : reported self-cleavage = 1.11

Record summary for UAACAGGGGGCCACAGCAGAAGCGUUCACGUCGCAGCCCCAGUCAGAUUCUUGUGAAUCUGCGAAUUCUGCUGUAUAUCUC [U41A G52U] : reported self-cleavage = 0.21

Record summary for CAACAGGGGGCCACAGCAAAAGCGUUCACGUCGCAGCCCCUGUCAGAUUCUGGUGAAUCUGCGAAUUCUGCUGUAUAUCUC [U1C G19A] : reported self-cleavage = 0.32

Record summary for UAACAGGGGGCCACAGCAGAAGCGUUCUCGUCGCAGCCCCUGUCAGAUUCUGGUGAAUCUGCGGAUUCUGCUGUAUAUCUC [A28U A64G] : reported self-cleavage = 0.63

Record summary for UAACAGGGUGCCACAGCAGAAGCGUUCACGGCGCAGCCCCUGUCAGAUUCUGGUGAAUCUGCGAAUUCUGCUGUAUAUCUC [G9U U31G] : reported self-cleavage = 0.06

Record summary for UAACAGGGGGCCACAGCAGAAGCGUGCACGUCGCAGCCCCUGUCAGAUUCUGGUGAAUCUGCGAAUUCUGCAGUAUAUCUC [U26G U72A] : reported self-cleavage = 0.14

Record summary for UAACAGGGGGCCACAGCAGAAGCGUUCACGUCGCAGCCCCUGUCAGAUUAUGGUGAAUCUGCGAACUCUGCUGUAUAUCUC [C50A U66C] : reported self-cleavage = 0.3

Record summary for UAACAGGGGGCCACAGCAGAAGCGUUCACGUCGCAGCCCGUGUCAGAUUCUGGUGAAUCUGCGAAUUCUGCCGUAUAUCUC [C40G U72C] : reported self-cleavage = 0.48

Record summary for UAACAGGGGGCCACAGCAGAAGCGUACACGUCGCAGGCCCUGUCAGAUUCUGGUGAAUCUGCGAAUUCUGCUGUAUAUCUC [U26A C37G] : reported self-cleavage = 0.62

Record summary for UAACAGGGGGCCGCAGCAGAAGCGUUCACGUCGCAGCCCCUGUCAGAUUCUGGUAAAUCUGCGAAUUCUGCUGUAUAUCUC [A13G G55A] : reported self-cleavage = 0.79

Record summary for UAACAGGGGGCCACAGCAGAAGCGUUCACGUCGCAGCCCCUGUCAGAUUCUGGUGAAUCUGCGAAAUCUGCUAUAUAUCUC [U66A G73A] : reported self-cleavage = 1.04

Record summary for UAACAGGGGGCCACAGCAGAAGCGUUCACGUCGCAGCCCCUGUCAGAUUCUGGUGAAUCAGCGAAUUCUGCUAUAUAUCUC [U60A G73A] : reported self-cleavage = 1.16

Record summary for UAACAGGGGGCCACAGCAGAAGCGUUCACGUCGCAGCCCCUGUCAGAUUCUAGUGAAUCUGCGGAUUCUGCUGUAUAUCUC [G52A A64G] : reported self-cleavage = 1.03

Record summary for UAACUGGGGGCCACAGUAGAAGCGUUCACGUCGCAGCCCCUGUCAGAUUCUGGUGAAUCUGCGAAUUCUGCUGUAUAUCUC [A5U C17U] : reported self-cleavage = 0.73

Record summary for UAACAGGGGGCCACAGCAGAAGCGUUCACGUCGCAGCCCCUGUCAGAUUCUGGUGAAUCUGCGAAUUCUGCUGUAUACCUG [U78C C81G] : reported self-cleavage = 1.25

Record summary for UAACGGGGGGCCACAGCAGAAGCGUUCACGUCGCAGCCCCUGUCAGAUUCUGGUGAAUCUGCGAAUUCUGCUGUUUAUCUC [A5G A75U] : reported self-cleavage = 0.83

Record summary for UAACAGGGGGCCACAGCAGAAGCGUUCACGUCGCGGCCCCGGUCAGAUUCUGGUGAAUCUGCGAAUUCUGCUGUAUAUCUC [A35G U41G] : reported self-cleavage = 0.33

Record summary for UAACAGGGGGCCUCAGCAGAAGCGUUCACGUCGCAGCCCCUGUCAGCUUCUGGUGAAUCUGCGAAUUCUGCUGUAUAUCUC [A13U A47C] : reported self-cleavage = 0.76

Cited source: the RNAGym collection of RNA variant scans (doi:10.1093/nar/gkz1192)
